The values you see were collected from patent US5302582A.

Answer each item with its documented IC50.
Number plus unit, in that order.

Request: Lab note: record IC50 of CC(C)[C@H](NCC(=O)[C@@H](O)[C@@H](O)[C@H](O)CO)C(=O)N[C@@H](CC(=O)O)C(=O)O tested on enkephalinase preparation solubilized from rat kidneys (Rattus norvegicus, UniProt P07861).
Sequence (P07861 whole entry): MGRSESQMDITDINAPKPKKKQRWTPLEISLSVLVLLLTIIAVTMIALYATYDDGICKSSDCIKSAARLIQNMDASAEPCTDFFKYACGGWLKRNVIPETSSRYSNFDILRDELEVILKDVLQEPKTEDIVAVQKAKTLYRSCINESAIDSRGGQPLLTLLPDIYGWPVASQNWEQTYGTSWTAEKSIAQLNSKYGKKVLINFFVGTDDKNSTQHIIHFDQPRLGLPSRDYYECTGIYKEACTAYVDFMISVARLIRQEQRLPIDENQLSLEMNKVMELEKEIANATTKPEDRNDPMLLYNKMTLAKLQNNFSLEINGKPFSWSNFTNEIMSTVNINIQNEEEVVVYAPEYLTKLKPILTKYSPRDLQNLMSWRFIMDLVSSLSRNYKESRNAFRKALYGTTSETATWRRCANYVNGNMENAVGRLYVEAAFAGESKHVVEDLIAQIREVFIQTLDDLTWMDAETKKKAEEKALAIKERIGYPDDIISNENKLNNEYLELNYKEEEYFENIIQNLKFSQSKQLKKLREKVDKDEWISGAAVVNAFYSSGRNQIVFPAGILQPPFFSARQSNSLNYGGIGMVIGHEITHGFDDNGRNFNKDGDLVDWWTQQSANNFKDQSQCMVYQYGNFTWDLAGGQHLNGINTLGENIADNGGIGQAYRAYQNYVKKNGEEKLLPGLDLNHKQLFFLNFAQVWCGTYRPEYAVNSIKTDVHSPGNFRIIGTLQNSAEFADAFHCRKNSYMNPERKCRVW
Response: 320 nM

Request: Lab note: record IC50 of O=C(O)CC[C@H](NC(=O)[C@H](Cc1ccccc1)NCC(=O)[C@@H](O)[C@H](O)[C@H](O)CO)C(=O)O tested on enkephalinase preparation solubilized from rat kidneys (Rattus norvegicus, UniProt P07861).
Response: 56 nM

Request: Lab note: record IC50 of CC[C@H](C)[C@H](NCC(=O)[C@@H](O)[C@H](O)[C@H](O)CO)C(=O)N[C@@H](CC(=O)OC(C)(C)C)C(=O)O tested on enkephalinase preparation solubilized from rat kidneys (Rattus norvegicus, UniProt P07861).
Response: 70 nM

Request: Lab note: record IC50 of CC(C)[C@H](NCC(=O)[C@@H](O)[C@H](O)[C@H](O)CO)C(=O)N[C@@H](CCC(=O)O)C(=O)O tested on enkephalinase preparation solubilized from rat kidneys (Rattus norvegicus, UniProt P07861).
Response: 34 nM

Request: Lab note: record IC50 of CC[C@@H](C)[C@@H](NCC(=O)[C@@H](O)[C@H](O)[C@H](O)CO)C(=O)O tested on enkephalinase preparation solubilized from rat kidneys (Rattus norvegicus, UniProt P07861).
Response: 340 nM

Request: Lab note: record IC50 of CC[C@H](C)[C@H](NCC(=O)[C@@H](O)[C@H](O)[C@H](O)CO)C(=O)N[C@@H](CC(=O)O)C(=O)O tested on enkephalinase preparation solubilized from rat kidneys (Rattus norvegicus, UniProt P07861).
Response: 34 nM
